Read-out record for Staphylococcus aureus NCTC 10788: MIC

Example cases with answers are listed next.
Value wanted: MIC (Staphylococcus aureus NCTC 10788) of entry `CC[C@H](C)[C@H](NC(=O)[C@H](CO)NC(=O)CNC(=O)CNC(=O)[C@@H](NC(=O)[C@H](CC(C)C)NC(=O)[C@H](CO)NC(=O)[C@@H]1CCCN1C(=O)[C@@H](NC(=O)[C@H](CC(C)C)NC(=O)[C@H](CO)NC(=O)[C@H](CC(C)C)NC(=O)[C@@H](N)Cc1ccccc1)[C@@H](C)CC)C(C)C)C(=O)N[C@@H](CO)C(=O)N[C@@H](C)C(=O)N[C@@H](Cc1ccccc1)C(=O)N[C@@H](CCCCN)C(=O)O` ≥ 120 µM

Form entry - test system: Staphylococcus aureus NCTC 10788; read-out: MIC; compound: `CC[C@H](C)[C@@H]1NC(=O)[C@H](C)NC(=O)[C@@H](NC(=O)[C@H](Cc2ccccc2)NC(=O)[C@@H](NC(=O)[C@H](CCCCN)NC(=O)[C@H](Cc2c[nH]c3ccccc23)NC(=O)[C@@H]2CCCN2C(=O)[C@H](CC(C)C)NC(=O)[C@H](Cc2ccccc2)NC(=O)[C@@H](N)CCCCN)[C@@H](C)CC)CSSC[C@@H](C(=O)O)NC(=O)[C@H](CCCCN)NC(=O)[C@H](CCCCN)NC(=O)[C@H]([C@@H](C)O)NC1=O` 8 µM

Below: the item to evaluate.
Find MIC (Staphylococcus aureus NCTC 10788) for the entry `CC(C)C[C@H](NC(=O)[C@H](C)NC(=O)[C@H](C)NC(=O)[C@H](CC(C)C)NC(=O)[C@H](CC(N)=O)NC(=O)[C@@H](NC(=O)[C@@H](NC(=O)[C@H](CC(C)C)NC(=O)[C@H](CCCCN)NC(=O)[C@H](CCCCN)NC(=O)[C@@H](NC(=O)[C@@H](NC(=O)[C@@H](NC(=O)[C@H](CC(C)C)NC(=O)[C@H](Cc1ccccc1)NC(=O)[C@@H](N)CO)[C@@H](C)O)[C@@H](C)O)C(C)C)C(C)C)[C@@H](C)O)C(N)=O` 8 µM

* * *

System: Escherichia coli
# MIC per entry
// note: answer is a bare numeric in µM

Write down the reported MIC of CC[C@H](C)[C@H](NC(=O)[C@H](C)NC(=O)CNC(=O)[C@@H](NC(=O)[C@H](CCCCN)NC(=O)[C@H](CCCCN)NC(=O)[C@@H](NC(=O)[C@H](C)NC(=O)CNC(=O)[C@H](Cc1c[nH]c2ccccc12)NC(=O)[C@H](CCCCN)NC(=O)[C@H](CCCCN)NC(=O)[C@@H](NC(=O)[C@H](C)NC(=O)CNC(=O)[C@@H](NC(=O)[C@H](CCCCN)NC(=O)[C@@H](N)CCCCN)[C@@H](C)CC)[C@@H](C)CC)[C@@H](C)CC)[C@@H](C)CC)C(N)=O [KKIGAIKKWGAIKKIGAI] , test system: Escherichia coli. 66.5

Would you kindly look at the next entry?
For the record CC(C)C[C@H](NC(=O)[C@@H](N)Cc1ccccc1)C(=O)NCC(=O)N[C@H](C(=O)N[C@H](C(=O)N[C@@H](Cc1ccccc1)C(=O)N[C@@H](CCCCN)C(=O)N[C@@H](CCCCN)C(=O)N[C@@H](C)C(=O)N[C@@H](CO)C(=O)N[C@@H](CCCCN)C(=O)N[C@H](C(=O)N[C@@H](Cc1ccccc1)C(=O)NCC(=O)N[C@@H](C)C(=O)N[C@H](C(=O)N[C@@H](Cc1ccccc1)C(=O)NCC(=O)N[C@@H](CCCCN)C(=O)N[C@H](C(=O)O)C(C)C)C(C)C)C(C)C)C(C)C)C(C)C [FLGVVFKKASKVFGAVFGKV] , what value of MIC is listed for Escherichia coli? 30.1

* * *

# Staphylococcus aureus ATCC 43300: MIC values follow
Give your result in µM as a bare value.

Hello, I am looking for reported MIC with Staphylococcus aureus ATCC 43300 for CC[C@H](C)[C@H](NC(=O)[C@H](C)NC(=O)[C@H](CCCCN)NC(=O)[C@@H]1CCCN1C(=O)[C@@H](NC(=O)[C@H](CC(C)C)NC(=O)[C@H](CCCCN)NC(=O)[C@H](Cc1ccccc1)NC(=O)[C@H](CC(C)C)NC(=O)[C@@H](N)Cc1ccccc1)[C@@H](C)CC)C(=O)N[C@@H](CCCCN)C(=O)N[C@@H](CCCCN)C(=O)N[C@@H](CC(C)C)C(=O)N[C@H](C(=O)N[C@@H](CO)C(=O)N[C@@H](CCCCN)C(=O)N[C@@H](Cc1ccccc1)C(=O)N[C@@H](CCCCN)C(=O)O)[C@@H](C)CC [FLFKLIPKAIKKLISKFK] . Could you help? 5

Which measured MIC belongs to NCCCC[C@H](NC(=O)CNC(=O)CNC(=O)[C@H](CCCN=C(N)N)NC(=O)[C@H](CS)NC(=O)[C@H](Cc1ccc(O)cc1)NC(=O)[C@H](Cc1c[nH]c2ccccc12)NC(=O)[C@H](CCCN=C(N)N)NC(=O)[C@H](Cc1c[nH]c2ccccc12)NC(=O)[C@H](Cc1cnc[nH]1)NC(=O)CNC(=O)CN)C(N)=O [GGHWRWYCRGGK] , tested on Staphylococcus aureus ATCC 43300? 11

Proceed to the following item.
Reported MIC for Staphylococcus aureus ATCC 43300, given CC[C@H](C)[C@@H]1NC(=O)CNC(=O)[C@H](CCCN=C(N)N)NC(=O)[C@H](Cc2ccc(O)cc2)NC(=O)[C@@H]2CSSC[C@H](NC1=O)C(=O)N[C@@H](Cc1ccc(O)cc1)C(=O)N[C@@H](CCCN=C(N)N)C(=O)N[C@@H](CCCN=C(N)N)C(=O)N[C@H](C(=O)N[C@@H](CCCN=C(N)N)C(=O)O)CSSC[C@H](NC(=O)[C@H](Cc1c[nH]c3ccccc13)NC(=O)[C@@H](N)CCCCN)C(=O)NCC(=O)N[C@@H](CCCN=C(N)N)C(=O)N[C@@H](C(C)C)C(=O)N2 [KWCGRVCYRGICYRRCR] ? 7.34

* * *

Here, each record is paired with measured MIC data.
Test system: Escherichia coli
Give just the numeric value; µM need not be written.

What measured MIC is associated with `CC(C)C[C@H](NC(=O)[C@H](CC(=O)O)NC(=O)[C@H](CCCCN)NC(=O)[C@@H](N)Cc1ccccc1)C(=O)NCC(=O)N[C@@H](CCC(=O)O)C(=O)N[C@@H](CCC(=O)O)C(=O)N[C@@H](CC(N)=O)C(=O)N[C@@H](Cc1ccccc1)C(=O)N[C@@H](CCCCN)C(=O)O` on Escherichia coli? 2450

New cases:
Value wanted: MIC (Escherichia coli) of entry `CC(C)[C@H](NC(=O)[C@@H]1CCCN1C(=O)[C@@H](NC(=O)[C@H](Cc1ccccc1)NC(=O)[C@H](CCC(=O)O)NC(=O)[C@H](CCCCN)NC(=O)CNC(=O)[C@H](Cc1ccccc1)NC(=O)[C@H](CC(N)=O)NC(=O)[C@H](CCCN=C(N)N)NC(=O)[C@H](C)N)[C@@H](C)O)C(=O)O` 12

* * *

Test system: Staphylococcus aureus ATCC 6538
Decide using MIC alone. Strictly below 10 µM: y. Equal to or above 10 µM: n.

Solved cases (2 shown):
hey, is MIC for `CC[C@H](C)[C@H](N)C(=O)N[C@@H](CC(=O)O)C(=O)N[C@@H](Cc1c[nH]c2ccccc12)C(=O)N[C@@H](CCCCN)C(=O)N[C@@H](CCCCN)C(=O)N[C@@H](CC(C)C)C(=O)N[C@@H](CC(C)C)C(=O)N[C@@H](CC(=O)O)C(=O)N[C@@H](C)C(=O)N[C@@H](C)C(=O)N[C@@H](CCCCN)C(=O)N[C@@H](CCC(N)=O)C(=O)N[C@H](C(=O)N[C@@H](CC(C)C)C(N)=O)[C@@H](C)CC` lower than 10 µM or not? y

Record `CC[C@H](C)[C@H](NC(=O)[C@H](CCCCN)NC(=O)[C@H](CCCCN)NC(=O)[C@@H](NC(=O)[C@@H](NC(=O)[C@H](CCCCN)NC(=O)[C@H](CCCCN)NC(=O)[C@@H](NC(=O)[C@@H](NC(=O)[C@H](CCCCN)NC(=O)[C@H](CCCCN)NC(=O)[C@@H](NC(=O)[C@@H](NC(=O)CN)[C@@H](C)CC)C(C)C)[C@@H](C)CC)C(C)C)[C@@H](C)CC)C(C)C)C(N)=O` : is its MIC strictly below 10 µM? n

Next:
For this compound, is MIC lower than 10 µM? `CC(C)C[C@H](NC(=O)[C@H](CS)NC(=O)[C@H](CCCCN)NC(=O)[C@H](C)NC(=O)[C@H](C)NC(=O)[C@H](CS)NC(=O)[C@H](C)NC(=O)[C@H](C)NC(=O)[C@@H](N)CC(=O)O)C(=O)N[C@@H](Cc1c[nH]c2ccccc12)C(=O)N[C@@H](CCCN=C(N)N)C(N)=O` n

For this compound, is MIC lower than 10 µM? `CC(C)C[C@H](NC(=O)[C@H](C)NC(=O)[C@H](CCCCN)NC(=O)[C@H](CC(C)C)NC(=O)[C@H](C)NC(=O)[C@H](CCCCN)NC(=O)[C@H](CC(C)C)NC(=O)[C@H](CC(C)C)NC(=O)[C@H](C)NC(=O)[C@H](CCCCN)NC(=O)[C@H](CC(C)C)NC(=O)[C@H](C)NC(=O)[C@H](CCCCN)NC(=O)[C@H](C)NC(=O)[C@@H](N)Cc1ccccc1)C(N)=O` y

In plain terms, does `CC(C)C[C@H](NC(=O)[C@H](CC(C)C)NC(=O)[C@H](CCCCN)NC(=O)[C@H](CCCCN)NC(=O)[C@H](C)NC(=O)[C@H](CC(C)C)NC(=O)[C@H](CCCCN)NC(=O)[C@H](C)NC(=O)[C@@H](N)Cc1ccccc1)C(N)=O` come in under 10 µM for MIC? n

Would you kindly verify if MIC of `CC(C)C[C@H](NC(=O)[C@H](CCCCN)NC(=O)[C@H](Cc1ccccc1)NC(=O)[C@H](CC(C)C)NC(=O)[C@H](CC(C)C)NC(=O)[C@H](CCCCN)NC(=O)[C@@H](N)CCCCN)C(=O)N[C@@H](CCCCN)C(=O)N[C@@H](Cc1ccccc1)C(=O)N[C@@H](CCCCN)C(N)=O` is strictly less than 10 µM? y
